System: 786-0
method: NCI tumour cell line growth inhibition, 48 h
Calls of active or inactive are those of the source. Cut-off read from the data, not from the text of the source: active = GI50 up to about 1.1 µM and inactive = higher.
Possible outcomes: label 1 for active, label 0 for inactive

compound	assignedCategory
CC(C)CC(NC(=O)OCc1ccccc1)C(=O)NCCCCC(N)C(=O)NC(CCCCNC(=O)C(CC(C)C)NC(=O)OCc1ccccc1)C(=O)NC(CCCCNC(=O)C(CC(C)C)NC(=O)OCc1ccccc1)C(=O)NC(CCCCNC(=O)C(CC(C)C)NC(=O)OCc1ccccc1)C(=O)NC(CCCCNC(=O)C(CC(C)C)NC(=O)OCc1ccccc1)C(=O)NC(CCCCNC(=O)C(CC(C)C)NC(=O)OCc1ccccc1)C(=O)O (stereo not drawn)	label 0
COc1cc(-c2[nH]ccc2Cl)oc1C1=C2N=C3C=C2C(C(C)C)C1CCCCCCCC3 (stereo not drawn)	label 1
N=C(N)SCc1ccc2c(c1)S(=O)(=O)c1ccccc1O2	label 0
O=[N+]([O-])C(/C=C(\Cl)[N+](=O)[O-])=C1Nc2ccccc2N1	label 0
COC(=O)/C=C1/OC(c2ccc(Br)cc2)=C(Br)C1=O	label 0
CCCCCC(C)(C)CCC(=O)OC1OC(COC2OC(COC3OC(CO)C(O)C(O)C3O)C(O)C(O)C2O)C(O)C(O)C1O (stereo not drawn)	label 0
CN(C)CN1C(=O)S/C(=C2\C(=O)N(CN(C)C)c3ccccc32)C1=O	label 0
COc1cccc(CC(C)N)c1 (stereo not drawn)	label 0

* * *

Test system: EKVX
method: NCI tumour cell line growth inhibition, 48 h
Calls of active or inactive are those of the source. Rule as the data show it: active = GI50 up to about 1.1 µM and inactive = higher.

compound	assayedTarget	GI50
Cc1sc(Nc2ccccc2[N+](=O)[O-])c(C#N)c1C	EKVX	35.4 µM (inactive)
O=C(CN1CCCCC1)Nc1ccc2c(c1)C1Oc3ccccc3CC1CO2 (stereo unspecified)	EKVX	17.2 µM (inactive)
CCN(CC)CCCNC(=O)c1cc(-c2nccn2C)nc2ccccc12	EKVX	> 100 µM (inactive)
CC(C(=O)N1c2ccccc2Sc2ccccc21)N1c2ccccc2Sc2ccccc21 (stereo unspecified)	EKVX	> 100 µM (inactive)
O=C(O)Cc1cccc2c1OC(c1ccccc1)C(C(=O)c1ccccc1)C2=O (stereo unspecified)	EKVX	36.2 µM (inactive)
O=CNNC(=O)Nc1ccc(Cl)cc1	EKVX	> 100 µM (inactive)

* * *

System: HOP-62
method: NCI tumour cell line growth inhibition, 48 h
Calls of active or inactive are those of the source. Rule as the data show it: active = GI50 up to about 1.1 µM and inactive = higher.
property: GI50

compound	assayedTarget	measuredResult
O=C(COc1ccc(Cl)c(Cl)c1)Nc1ccc[n+](Cc2ccc(S(=O)(=O)F)c(Cl)c2)c1	HOP-62	> 100 µM (inactive)
C=C1C(=O)C[C@@]23CCC[C@@]12CC(OCOC)C3 (stereo not given in full)	HOP-62	12 µM (inactive)
CO/N=C\c1ccc2c(c1)Sc1ccccc1O2	HOP-62	> 100 µM (inactive)
COC(=O)/C(C#N)=C(\Nc1ccccc1)N1CCOCC1	HOP-62	> 100 µM (inactive)
OC[C@H]1O[C@@H]2O[C@@](COCc3ccccc3)([C@H](OCc3ccccc3)[C@H]2O)[C@@H]1OCc1ccccc1	HOP-62	18.1 µM (inactive)
CSc1nc(C)c(CCOC(C)=O)c(N=P(c2ccccc2)(c2ccccc2)c2ccccc2)n1	HOP-62	7.94 µM (inactive)
O=c1oc2ccccc2cc1-c1csc(Nc2ccc(F)cc2)n1	HOP-62	2.99 µM (inactive)
CC(=O)NNc1nc(C)c(C(=O)/C=C/c2ccc(Cl)c(Cl)c2)s1	HOP-62	> 100 µM (inactive)
COc1ccc(O)c(C#N)c1C#N	HOP-62	> 100 µM (inactive)
Brc1ccc(N2C[N+](c3ccc(Br)cc3)=NC(c3ccccc3)=N2)cc1.[O-][Cl+3]([O-])([O-])[O-]	HOP-62	74.1 µM (inactive)

* * *

Test system: HT-29
method: NCI tumour cell line growth inhibition, 48 h
Activity calls are given as the source filed them. Cut-off read from the data, not from the text of the source: active = GI50 up to about 1.1 µM and inactive = higher.

compound	assayedTarget	GI50
CC1CC(C)C(C(O)CC2CC(=O)N(c3ccccc3)C(=O)C2)C(O)C1 (stereo unspecified)	HT-29	> 100 µM (inactive)
CC[C@@H]1C[C@@H]2CN3CCc4c([nH]c5ccc(OC)cc45)C(COC(=O)c4ccc(OC)c(OC)c4)(C2)C13	HT-29	7.82 µM (inactive)
CN(O)C(=O)CCCC(=O)NCC(C)(C)CNC(=O)CCCC(=O)N(C)O	HT-29	> 100 µM (inactive)
Cc1ccc(O)c(C2=CC(c3cccc(Cl)c3)SC(=N)N2)c1 (stereo unspecified)	HT-29	20.8 µM (inactive)
COC(=O)C1(Cc2cccc(Cl)c2)CCCCCCN1C(=O)c1ccccc1 (stereo unspecified)	HT-29	12.9 µM (inactive)
Cc1nc2cccc(F)c2c(=O)n1C1CCCCNC1=O (stereo unspecified)	HT-29	> 10 µM (inactive)
O=NN(CCCl)C(=O)N[C@H]1CC[C@H](C(=O)O)CC1	HT-29	> 100 µM (inactive)
CN(Cc1cnc2nc(N)nc(N)c2n1)c1ccc(C(=O)N[C@@H](CCC(=O)O)C(=O)O)cc1 [METHOTREXATE]	HT-29	0.0335 µM (active)
Cc1cc(O)c(C(c2cccnc2)c2c(O)cc(C)[nH]c2=O)c(=O)[nH]1	HT-29	> 100 µM (inactive)
Cn1c(=O)c2nc(CCNC(=O)c3ccccc3)[nH]c2n(C)c1=O	HT-29	> 100 µM (inactive)
COc1ccccc1-n1c(=O)n(C)c(=O)n1C(C)(C)C	HT-29	> 100 µM (inactive)
COc1cc(C2C(Cl)C(=O)N2NC(=O)c2ccc(N)cc2)ccc1O (stereo unspecified)	HT-29	23.4 µM (inactive)
CCOC(=N)CC(=O)Nc1ccccc1CC	HT-29	> 100 µM (inactive)
N=C(N)CCNC(=O)C1CCC(N)=N1 (stereo unspecified)	HT-29	5.2 µM (inactive)
Cc1cc(Cc2cc(Cc3cc(C)cc(C(C)(C)C)c3O)c(C)cc2C)c(O)c(C(C)(C)C)c1	HT-29	18.6 µM (inactive)
CN(C)/N=N/c1nc2c(c(=O)n(C)c(=O)n2C)n1C	HT-29	> 100 µM (inactive)
Cc1c(O)ccc2c(O)c(NC(=O)c3ccc4c(c3)CCC(C)(C)O4)c(=O)oc12	HT-29	> 100 µM (inactive)
O=C(O)Cc1cccc2c1OC(c1ccccc1)C(C(=O)c1ccccc1)C2=O (stereo unspecified)	HT-29	> 10 µM (inactive)
Cc1cc2nc3n(c2cc1C)C(c1c(F)cccc1F)SC3 (stereo unspecified)	HT-29	18.5 µM (inactive)
O=C(CN1CCCCC1)Nc1ccc2c(c1)C1Oc3ccccc3CC1CO2 (stereo unspecified)	HT-29	14.5 µM (inactive)
CC1CC(NC2CCCCC2)=Nc2ccccc2N1Cc1ccccc1 (stereo unspecified)	HT-29	2.82 µM (inactive)

* * *

Test system: K562
method: NCI tumour cell line growth inhibition, 48 h
The source made the active and inactive calls. Cut-off read from the data, not from the text of the source: active = GI50 up to about 1.1 µM and inactive = higher.

compound	GI50
Cc1ccc(S(=O)(=O)N/N=C/CN2C(=O)c3ccccc3C2=O)cc1	> 100 µM (inactive)
CC#CC(O)(C(=O)OC1CC(C)N(C)C(C)(C)C1)C1CCCC1 (centres undefined)	> 100 µM (inactive)
Cc1nc2c(=O)n(C)c(=O)n(C)c2o1	> 100 µM (inactive)
Cc1cc2nc3n(c2cc1C)C(c1c(F)cccc1F)SC3 (centres undefined)	17.6 µM (inactive)
Brc1ccc(N2C[N+](c3ccc(Br)cc3)=NC(c3ccccc3)=N2)cc1.[O-][Cl+3]([O-])([O-])[O-]	31.3 µM (inactive)
CCOC(=O)Cc1nc2ccccc2s1	25.4 µM (inactive)
CC(=O)OCCOCn1c2c(c(=O)[nH]c1=O)CCC2	> 100 µM (inactive)
COC(=O)c1cc(C(=CCC[C@H]2CC[C@@]3(C)C(CCC4C3CC[C@@]3(C)C4CC[C@@H]3C(C)CCCC(C)C)C2)c2cc(Cl)c(OC(=O)c3ccccc3)c(C(=O)OC)c2)cc(Cl)c1OC(=O)c1ccccc1 (some centres undefined)	> 10 µM (inactive)
CCOC(=O)N1C2C=C(C)C(ON2C(=O)c2ccccc2)C2C(C)C(=O)N21 (centres undefined)	> 100 µM (inactive)

* * *

Measured GI50 of individual entries
Tested on: NCI-H522
method: NCI tumour cell line growth inhibition, 48 h
Active and inactive are the calls of the source. Cut-off read from the data, not from the text of the source: active = GI50 up to about 1.1 µM and inactive = higher.

compound	assayedTarget	GI50
Cc1c(CN2CCN(C)CC2)c(CN2CCN(C)CC2)c(C)n1-c1ccc(Cl)cc1	NCI-H522	20.5 µM (inactive)
O=c1cc(N2CCCC2)[nH]c(=O)n1Cc1ccccc1	NCI-H522	> 100 µM (inactive)
CCN(CC)CCCNC(=O)c1cc(-c2nccn2C)nc2ccccc12	NCI-H522	> 100 µM (inactive)
O=C1/C(=C/c2ccccc2)N=C2Sc3c([nH]cnc3=O)N12	NCI-H522	> 100 µM (inactive)
N#CC12C(=O)N=C(N)C1(C#N)C(c1ccco1)NC1=C2CCCC1 (stereo unspecified)	NCI-H522	> 100 µM (inactive)
CNC(=S)N/N=C(\C)c1cc(OC)ccc1O	NCI-H522	3.9 µM (inactive)

Just for reference, ChEMBL document CHEMBL1201862 is where these values come from.
